Reference source: the supplement of paper PMC9732359

Listed below: protein stability index values for each entry.
# experimental-protocol: protein stability index of a GFP-peptide fusion (yeast GPS) (PSI 1-4); higher = more stable; sorted into four equal gates, so the index is relative within each strain
# test-parameters: ubr1∆

{"columns": ["item-sequence", "protein stability index"],
 "data": [
  ["VPQGKIVALTNAKDKER [SMC3]", 3.02],
  ["GIGGDHAKFSPVSTASY [RPC40]", 2.9],
  ["DVHLLESKVYHKLRNLA [RPN6]", 2.13],
  ["NTSLISLFTYFREAIVA [PRP8]", 1.44],
  ["DVILDYQTKKFYDYIKE [REC8]", 2.92],
  ["DRLSLQDRQQLLPLVVS [ECM29]", 1.84],
  ["PNEHPGAKYVIRDSGDR [RPO21]", 3.03],
  ["RELTKNILWRIADKTTY [SIR4]", 3.02],
  ["GLYKMMEERDGAKFENI [AAR2]", 1.74],
  ["INTHIETLAYNSLKETL [SNF2]", 2.61],
  ["EGLIRLDNLTEDPNSAA [DIS3]", 3.19],
  ["PKPDKPSGRTRGRSVMK [ESC2]", 3.7],
  ["MNGNGKPGIPRGNTKIH [SIR3]", 3.25],
  ["DKSTKTAEAPTLSFNFS [YOR098C/NUP1]", 3.23],
  ["LVYDVKGRFAVHRITDE [RPS4A]", 3.29],
  ["TEHLTELSDNEENFEAT [YCG1]", 2.96],
  ["KDFTNKNLIQLISLKLL [SRB8]", 1.91],
  ["NKEKSNSPTSFFDGSAS [YOR098C/NUP1]", 2.95],
  ["QEKMDPNNSRDDYKDLT [IRR1]", 3.25],
  ["SWRNITNLSGGEKTLSS [SMC4]", 3.01],
  ["FLQSVDITGIRDVSDDV [GRR1]", 1.69],
  ["SKTGIIAYSDSQSSNAN [SIN4]", 2.53],
  ["SMRTIMKANPALYVLRE [PRP8]", 1.37],
  ["AKPDNLANFSNEVAMNN [SWP82]", 3.23],
  ["GSDEAYVKDARKDTVSR [RPC40]", 3.35],
  ["ASGSINRKVLQALEKIG [RPS19A]", 1.99],
  ["PGYVDIVKTSSGNEMPP [RPS19A]", 3.11],
  ["VTSEKYPFDKLESWWLV [BRR2]", 3.3],
  ["MTLLTDSLRKLYVDSES [MTW1]", 1.59],
  ["RTDATFIRVIGSELVQK [RPT1]", 2.98],
  ["NVGELIEKNVMESIGSD [RRP4]", 2.39]
]}

====

# experimental-protocol: protein stability index of a GFP-peptide fusion (yeast GPS) (PSI 1-4); higher = more stable; sorted into four equal gates, so the index is relative within each strain
# test-parameters: pdr5∆

{"columns": ["item-sequence", "protein stability index"],
 "data": [
  ["WQYYYYTLTEEGVEYLR [RPS10A]", 2.66],
  ["AEFKKRKIEAETRNGKV [YCS4]", 3.18],
  ["GQSTILVGSEIYEKLKN [CDC53]", 3.12],
  ["NFNSSLHKRQQFSESTH [YJL039C/NUP192]", 3.14],
  ["AQAWINLGEYYAQIGDK [RPN7]", 2.77],
  ["LSILNEIKKVTQIVAKF [SIN4]", 2.39],
  ["EITEKKNGESLEGEEIK [RPN1]", 3.03],
  ["VLEKYEVIGYIAAGTYG [SSN3]", 1.55],
  ["LEIDNKDSVTECSKDMK [SIR4]", 3.53],
  ["LLVDIQKYNQIQKQIET [SMC2]", 1.86],
  ["SINATALAFGYVKSLHK [SIN4]", 2.92],
  ["STATRNVTMIDDLIHFT [COR1]", 2.81],
  ["LSDLSSPVQDWNLLRSL [YML103C/NUP188]", 3.07],
  ["KDGRIRIFKITEKLSPL [YGL100W/SEH1]", 2.85],
  ["RREFKQYSLERNSPFWW [PRP8]", 3.64],
  ["QLKWAQNTIDDTEMKMK [YIL149C/MLP2]", 2.88],
  ["QLNKVVDQLFEKASVLY [RPN6]", 2.06],
  ["SNLSPDLKFKRHKNKHI [DSN1]", 2.58],
  ["VENYETSSAFFYQQVHK [SIR4]", 2.57],
  ["KIKPYVRSFSKALDELK [LRP1]", 2.95],
  ["FGKTGDQKETKKGESEK [YOR098C/NUP1]", 3.4],
  ["SSTDFSTCIVSLIRNNL [ECM29]", 2.99],
  ["GSSALADNKEDVKKPFS [YLR335W/NUP2]", 3.16],
  ["NNSTGIANDNVITPHFI [SWI1]", 2.95],
  ["GFIENCNGSALVEARSL [MTR3]", 2.83],
  ["VELHGKRKLDIGKDTFV [PRP8]", 2.94],
  ["TEHLTELSDNEENFEAT [YCG1]", 3.15],
  ["ISKTTLTLDPRYIWRSL [RPN3]", 2.61],
  ["RILNFFDKNTKTTPNTA [YMR153W/NUP53]", 2.53],
  ["NRLSRIHLYMLTFHTLK [YLR018C/POM34]", 1.58],
  ["TKLRAFVYNKVNETEAI [YGR119C/NUP57]", 2.69],
  ["LQRHLSLGIRPCLRKYE [RRP43]", 2.66],
  ["APEIPEDLYYLIKKAVS [RPS13]", 2.92],
  ["YMEPFDLDLNEQVRKMY [NSL1]", 2.36],
  ["TPSTNEPYARVSGDLNP [FAS1]", 2.6],
  ["VIVLSNISHLLEIASSI [SWI1]", 1.67],
  ["SLLEKDIDAVNGAVGKR [ISW2]", 3.24],
  ["SRSTEKKNDMNTSAKNK [SIR4]", 2.66],
  ["NIDQEGSKQADRMAKYL [PGD1]", 3.35],
  ["VLDVDPKYAKQKDKSDT [ISW2]", 3.01],
  ["GITAVHVKIRATGGTRT [RPS14B]", 1.61],
  ["EAHNKALNQFKRKLLEH [RPT4]", 3.14],
  ["QFSYVDSSMTTVQENEL [AAR2]", 2.99],
  ["LPAAVSKSLQESGDTQE [RPC82]", 2.74],
  ["ETTTQFKATHILDFGPG [FAS1]", 2],
  ["IIKMTIPYAAKLLFQEL [RET1]", 2.08],
  ["ASLNALKESIKNSTSSM [RPN1]", 3.25],
  ["PFVPVLDRRFEIFFKKD [FAS1]", 2.98],
  ["VFYAELNEFFTRELAEE [RPS3]", 3.24],
  ["GLMLGEFVDDYTVNVVD [RPN11]", 3.26],
  ["ISPESVFGTLGELIKVN [SMC3]", 2.25],
  ["RSSYMLELVNTPLTENI [YCG1]", 3.18],
  ["QPGYADLEHKEDCVEEF [QCR6]", 2.56],
  ["IDRGLFRSLFFRSYMDQ [RPB2]", 2.88],
  ["SMENYHLLIKIIRQLSE [SRB8]", 1.77],
  ["DDEDDEHNPTIVGGLYY [AAR2]", 3.14],
  ["DTSKALLNVSVNITKFS [SKI6]", 2.57],
  ["MVALISKKRKLVADGVF [RPS3]", 1.85],
  ["RENVKSKDEPVSKAVES [SIR4]", 3.73],
  ["NFNDIPPSVTLQDWQRE [YDL088C/ASM4]", 2.31]
]}
